System: TYLPWPA-GFP (synthetic fusion (expressed by L-arabinose induction))
Assay: SPR
Settings: m2G966; m5C967 (E. coli numbering); 5' phosphorothioate; SPR: 10 mM Tris-HCl pH 7.5, 150 mM NaCl, 10 mM MgCl2, 1 mM DTT, 0.005% P20, 50 uL/min, streptavidin-coated CM5 chip; CD: 10 mM sodium phosphate pH 7, 100 mM …
observable: Kd (µM)
Form entry: value (µM) — number only.

What the record says about GUUCGAUGCAACGCGAAC [modified h31 (wild-type), biotinylated] : Kd is 28
